assay: Drug metabolism in human HepG2 cells assessed as NO release by measuring nitrite formation at 100 uM after 1 hr by Griess assay; assay type: ADME, cell-based; conditions: hepg2, 1 h
So I've got a bunch of molecules here, and I need their Drug metabolism values.
One number for each entry, in µM.

Provide reported Drug metabolism for each item, in the same order as listed.
1. C[C@H]1CCC/C=C/[C@@H]2C[C@H](O)C[C@H]2[C@H](OC(=O)CCCC(=O)OCCOc2no[n+]([O-])c2S(=O)(=O)c2ccccc2)/C=C/C(=O)O1
2. C[C@H]1CCC/C=C/[C@@H]2C[C@H](OC(=O)CCCC(=O)OCCOc3no[n+]([O-])c3S(=O)(=O)c3ccccc3)C[C@H]2[C@H](O)/C=C/C(=O)O1
3. C[C@H]1CCC/C=C/[C@@H]2C[C@H](OC(=O)CCC(=O)OCCOc3no[n+]([O-])c3S(=O)(=O)c3ccccc3)C[C@H]2[C@H](OC(=O)CCC(=O)OCCOc2no[n+]([O-])c2S(=O)(=O)c2ccccc2)/C=C/C(=O)O1
4. C[C@H]1CCC/C=C/[C@@H]2C[C@H](OC(=O)CCCC(=O)OCCOc3no[n+]([O-])c3S(=O)(=O)c3ccccc3)C[C@H]2[C@H](OC(=O)CCCC(=O)OCCOc2no[n+]([O-])c2S(=O)(=O)c2ccccc2)/C=C/C(=O)O1
5. C[C@H]1CCC/C=C/[C@@H]2C[C@H](OC(=O)c3ccccc3C(=O)OCCOc3no[n+]([O-])c3S(=O)(=O)c3ccccc3)C[C@H]2[C@H](OC(=O)c2ccccc2C(=O)OCCOc2no[n+]([O-])c2S(=O)(=O)c2ccccc2)/C=C/C(=O)O1

1: 68.5; 2: 65.2; 3: 98.4; 4: 98.5; 5: 89.3

I'd like to know its Drug metabolism. The molecule in question is C[C@H]1CCC/C=C/[C@@H]2C[C@H](OC(=O)CCCC(=O)OCCCOc3no[n+]([O-])c3S(=O)(=O)c3ccccc3)C[C@H]2[C@H](OC(=O)CCCC(=O)OCCCOc2no[n+]([O-])c2S(=O)(=O)c2ccccc2)/C=C/C(=O)O1 92.3

----------
tested on: HT-29; assay: Antiproliferative activity against human HT-29 cells after 72 hrs by MTT assay; type: functional, cell-based; details: HT-29, 72 h
Field: pIC50. Provide a value for each of the compounds that follow.
Answers are plain numbers, as −log10 of the molar value.

Sample records with pIC50:
• C[C@H]1CCC/C=C/[C@@H]2C[C@H](OC(=O)CCC(=O)OCCOc3no[n+]([O-])c3S(=O)(=O)c3ccccc3)C[C@H]2[C@H](O)/C=C/C(=O)O1 = 6.34
• C[C@H]1CCC/C=C/[C@@H]2C[C@H](OC(=O)c3ccccc3C(=O)OCCOc3no[n+]([O-])c3S(=O)(=O)c3ccccc3)C[C@H]2[C@H](O)/C=C/C(=O)O1 = 6.55
• C[C@H]1CCC/C=C/[C@@H]2C[C@H](OC(=O)c3ccccc3C(=O)OCCCOc3no[n+]([O-])c3S(=O)(=O)c3ccccc3)C[C@H]2[C@H](O)/C=C/C(=O)O1 = 6.52
• C[C@H]1CCC/C=C/[C@@H]2C[C@H](OC(=O)CCC(=O)OCCCOc3no[n+]([O-])c3S(=O)(=O)c3ccccc3)C[C@H]2[C@H](OC(=O)CCC(=O)OCCCOc2no[n+]([O-])c2S(=O)(=O)c2ccccc2)/C=C/C(=O)O1 = 5.92
• C[C@H]1CCC/C=C/[C@@H]2C[C@H](O)C[C@H]2[C@H](O)/C=C/C(=O)O1 [BREFELDIN A] = 6.80
• C[C@H]1CCC/C=C/[C@@H]2C[C@H](OC(=O)CCC(=O)O)C[C@H]2[C@H](O)/C=C/C(=O)O1 = 5.20
• C[C@H]1CCC/C=C/[C@@H]2C[C@H](OC(=O)CCCC(=O)OCCOc3no[n+]([O-])c3S(=O)(=O)c3ccccc3)C[C@H]2[C@H](OC(=O)CCCC(=O)OCCOc2no[n+]([O-])c2S(=O)(=O)c2ccccc2)/C=C/C(=O)O1 = 6.80
• C[C@H]1CCC/C=C/[C@@H]2C[C@H](OC(=O)c3ccccc3C(=O)OCCOc3no[n+]([O-])c3S(=O)(=O)c3ccccc3)C[C@H]2[C@H](OC(=O)c2ccccc2C(=O)OCCOc2no[n+]([O-])c2S(=O)(=O)c2ccccc2)/C=C/C(=O)O1 = 6.64

// next entry
Please look up its pIC50: C[C@H]1CCC/C=C/[C@@H]2C[C@H](OC(=O)c3ccccc3C(=O)OCCCOc3no[n+]([O-])c3S(=O)(=O)c3ccccc3)C[C@H]2[C@H](OC(=O)c2ccccc2C(=O)OCCCOc2no[n+]([O-])c2S(=O)(=O)c2ccccc2)/C=C/C(=O)O1 5.36

Sourced from ChEMBL document CHEMBL4138082
